The origin of these recorded values is ChEMBL document CHEMBL1126896.

tested on: MT4; test: Effective concentration to achieve 50% protection of MT-4 cells against the cytopathic effect of HIV-2; format: functional, cell-based; conditions: Homo sapiens, MT4; read-out: EC50
Assignment: determine reported EC50 for the given compounds.
Give bare numbers, in µg/mL.

// fetch MT4 EC50 for CC(=O)NC1C(OC2C(C(=O)[O-])OC(OC3C(COS(=O)(=O)[O-])OC(OC4C(C(=O)[O-])OC(OC5C(COS(=O)(=O)[O-])OC(O/C(=C/C(=O)[O-])CO)C(NC(C)=O)C5O)C(OS(=O)(=O)[O-])C4O)C(NC(C)=O)C3O)C(OS(=O)(=O)[O-])C2O)OC(COS(=O)(=O)[O-])C(O)C1O.[Na+].[Na+].[Na+].[Na+].[Na+].[Na+].[Na+].[Na+] (configuration not stated)
2.7

Now for a further compound.
// fetch MT4 EC50 for CCCCCC(=O)OCC1OC(OC2C(C(=O)[O-])OC(OC3C(NC(C)=O)C(OC4C(C(=O)[O-])OC(C)C(OC(=O)CCCCC)C4O)OC(COC(=O)CCCCC)C3OS(=O)(=O)[O-])C(OC(=O)CCCCC)C2OC(=O)CCCCC)C(NC(C)=O)C(OC)C1OS(=O)(=O)[O-].[Na+].[Na+].[Na+].[Na+] (configuration not stated)
5.4

* * *

system: MT4; assay: Selectivity index for CC50 (cytotoxic concentration based on reduction of viability of mock-infected MT-4 cells) to that of EC50 against HIV-2; type: functional
PROPERTY_LABEL: Selectivity index

Return reported Selectivity index; argument: CCCCCCCCOC(=O)/C=C(\CO)OC1OC(COS(=O)(=O)[O-])C(OC2OC(C(=O)OCCCCCCCC)C(OC3OC(COS(=O)(=O)[O-])C(OC4OC(C(=O)OCCCCCCCC)C(OC5OC(COS(=O)(=O)[O-])C(O)C(O)C5NS(=O)(=O)[O-])C(O)C4OS(=O)(=O)[O-])C(O)C3NS(=O)(=O)[O-])C(O)C2OS(=O)(=O)[O-])C(O)C1NS(=O)(=O)[O-].[Na+].[Na+].[Na+].[Na+].[Na+].[Na+].[Na+].[Na+] (stereo in doubt; 7f)
>454

Return reported Selectivity index; argument: CCCCCCCC(=O)OC/C(=C\C(=O)[O-])OC1OC(COS(=O)(=O)[O-])C(OC2OC(C(=O)[O-])C(OC3OC(COS(=O)(=O)[O-])C(OC4OC(C(=O)[O-])C(OC5OC(CS(=O)(=O)[O-])C(O)C(OC(=O)CCCCCCC)C5NS(=O)(=O)[O-])C(OC(=O)CCCCCCC)C4OS(=O)(=O)[O-])C(OC(=O)CCCCCCC)C3NS(=O)(=O)[O-])C(OC(=O)CCCCCCC)C2OS(=O)(=O)[O-])C(OC(=O)CCCCCCC)C1NS(=O)(=O)[O-].[Na+].[Na+].[Na+].[Na+].[Na+].[Na+].[Na+].[Na+].[Na+].[Na+].[Na+] (stereo not drawn)
>1

Now for a further molecule.
Return reported Selectivity index; argument: O=C([O-])/C=C(\CO)OC1OC(COS(=O)(=O)[O-])C(OC2OC(C(=O)[O-])C(OC3OC(COS(=O)(=O)[O-])C(OC4OC(C(=O)[O-])C(OC5OC(COS(=O)(=O)[O-])C(O)C(O)C5NS(=O)(=O)[O-])C(O)C4OS(=O)(=O)[O-])C(O)C3NS(=O)(=O)[O-])C(O)C2OS(=O)(=O)[O-])C(O)C1NS(=O)(=O)[O-].[Na+].[Na+].[Na+].[Na+].[Na+].[Na+].[Na+].[Na+].[Na+].[Na+].[Na+] (stereo in doubt; 3a)
318

* * *

Assignment: determine reported EC50 for the given compounds.
tested on: HuT78; test: Giant-cell formation between persistently HIV-1 infected HUT-78 cells and uninfected MOLT-4 cells; format: functional, cell-based; details: hut78
One number for each entry, in µg/mL.

Below are worked cases with known answers.
Return reported EC50; argument: CCCCCC(=O)OC/C(=C\C(=O)[O-])OC1OC(COS(=O)(=O)[O-])C(OC2OC(C(=O)[O-])C(OC3OC(COS(=O)(=O)[O-])C(OC4OC(C(=O)[O-])C(OC5OC(CS(=O)(=O)[O-])C(O)C(OC(=O)CCCCC)C5NS(=O)(=O)[O-])C(OC(=O)CCCCC)C4OS(=O)(=O)[O-])C(OC(=O)CCCCC)C3NS(=O)(=O)[O-])C(OC(=O)CCCCC)C2OS(=O)(=O)[O-])C(OC(=O)CCCCC)C1NS(=O)(=O)[O-].[Na+].[Na+].[Na+].[Na+].[Na+].[Na+].[Na+].[Na+].[Na+].[Na+].[Na+] (stereo in doubt; 3j)
2

Return reported EC50; argument: CCCCCC(=O)OC/C(=C\C(=O)[O-])OC1OC(COS(=O)(=O)[O-])C(OC2OC(C(=O)[O-])C(OC3OC(COS(=O)(=O)[O-])C(OC4OC(C(=O)[O-])C(OC5OC(CS(=O)(=O)[O-])C(O)C(OC(=O)CCCCC)C5NS(=O)(=O)[O-])C(OC(=O)CCCCC)C4OS(=O)(=O)[O-])C(OC(=O)CCCCC)C3NS(=O)(=O)[O-])C(OC(=O)CCCCC)C2OS(=O)(=O)[O-])C(OC(=O)CCCCC)C1NS(=O)(=O)[O-].[Na+].[Na+].[Na+].[Na+].[Na+].[Na+].[Na+].[Na+].[Na+].[Na+].[Na+] (stereo in doubt; 3g)
6

Return reported EC50; argument: CCCCCC(=O)OC/C(=C\C(=O)[O-])OC1OC(COS(=O)(=O)[O-])C(OC2OC(C(=O)[O-])C(OC3OC(COS(=O)(=O)[O-])C(OC4OC(C(=O)[O-])C(OC5OC(CS(=O)(=O)[O-])C(O)C(OC(=O)CCCCC)C5NS(=O)(=O)[O-])C(OC(=O)CCCCC)C4OS(=O)(=O)[O-])C(OC(=O)CCCCC)C3NS(=O)(=O)[O-])C(OC(=O)CCCCC)C2OS(=O)(=O)[O-])C(OC(=O)CCCCC)C1NS(=O)(=O)[O-].[Na+].[Na+].[Na+].[Na+].[Na+].[Na+].[Na+].[Na+].[Na+].[Na+].[Na+] (stereo in doubt; 3f)
7

Return reported EC50; argument: CCCCOC(=O)/C=C(\COC(=O)CCC)OC1OC(COS(=O)(=O)[O-])C(OC2OC(C(=O)OCCCC)C(OC3OC(COS(=O)(=O)[O-])C(OC4OC(C(=O)OCCCC)C(OC5OC(COS(=O)(=O)[O-])C(O)C(OC(=O)CCC)C5NC(C)=O)C(OC(=O)CCC)C4OS(=O)(=O)[O-])C(OC(=O)CCC)C3NC(C)=O)C(OC(=O)CCC)C2OS(=O)(=O)[O-])C(OC(=O)CCC)C1NC(C)=O.[Na+].[Na+].[Na+].[Na+].[Na+] (stereo unspecified)
15

Now for a further compound.
Return reported EC50; argument: CCCCCCCCOC(=O)/C=C(\CO)OC1OC(COS(=O)(=O)[O-])C(OC2OC(C(=O)OCCCCCCCC)C(OC3OC(COS(=O)(=O)[O-])C(OC4OC(C(=O)OCCCCCCCC)C(OC5OC(COS(=O)(=O)[O-])C(O)C(O)C5NS(=O)(=O)[O-])C(O)C4OS(=O)(=O)[O-])C(O)C3NS(=O)(=O)[O-])C(O)C2OS(=O)(=O)[O-])C(O)C1NS(=O)(=O)[O-].[Na+].[Na+].[Na+].[Na+].[Na+].[Na+].[Na+].[Na+] (stereo in doubt; 7g)
4

* * *

tested on: HuT78; test: Giant-cell formation between persistently HIV-1 infected HUT-78 cells and uninfected MOLT-4 cells; assay type: functional, cell-based; details: hut78
PROPERTY_LABEL: EC50 (µg/mL)
Numbers only, in µg/mL.

Return reported EC50; argument: CCCCCC(=O)OC/C(=C\C(=O)[O-])OC1OC(COS(=O)(=O)[O-])C(OC2OC(C(=O)[O-])C(OC3OC(COS(=O)(=O)[O-])C(OC4OC(C(=O)[O-])C(OC5OC(CS(=O)(=O)[O-])C(O)C(OC(=O)CCCCC)C5NS(=O)(=O)[O-])C(OC(=O)CCCCC)C4OS(=O)(=O)[O-])C(OC(=O)CCCCC)C3NS(=O)(=O)[O-])C(OC(=O)CCCCC)C2OS(=O)(=O)[O-])C(OC(=O)CCCCC)C1NS(=O)(=O)[O-].[Na+].[Na+].[Na+].[Na+].[Na+].[Na+].[Na+].[Na+].[Na+].[Na+].[Na+] (stereo in doubt; 2e)
2.9

* * *

assay: In vitro anticoagulant activity determined by clotting test of activated partial thromboplastin time (APTT) on a pool of human plasma; assay type: functional
PROPERTY_LABEL: APTT (IU mg-1)
Answers are plain numbers, in IU mg-1.

Below are worked cases with known answers.
Return reported APTT; argument: CCCCCC(=O)OC/C(=C\C(=O)[O-])OC1OC(COS(=O)(=O)[O-])C(OC2OC(C(=O)[O-])C(OC3OC(COS(=O)(=O)[O-])C(OC4OC(C(=O)[O-])C(OC5OC(CS(=O)(=O)[O-])C(O)C(OC(=O)CCCCC)C5NS(=O)(=O)[O-])C(OC(=O)CCCCC)C4OS(=O)(=O)[O-])C(OC(=O)CCCCC)C3NS(=O)(=O)[O-])C(OC(=O)CCCCC)C2OS(=O)(=O)[O-])C(OC(=O)CCCCC)C1NS(=O)(=O)[O-].[Na+].[Na+].[Na+].[Na+].[Na+].[Na+].[Na+].[Na+].[Na+].[Na+].[Na+] (stereo in doubt; 3f)
4

Return reported APTT; argument: CCCCOC(=O)/C=C(\COC(=O)CCC)OC1OC(COS(=O)(=O)[O-])C(OC2OC(C(=O)OCCCC)C(OC3OC(COS(=O)(=O)[O-])C(OC4OC(C(=O)OCCCC)C(OC5OC(COS(=O)(=O)[O-])C(O)C(OC(=O)CCC)C5NS(=O)(=O)[O-])C(OC(=O)CCC)C4OS(=O)(=O)[O-])C(OC(=O)CCC)C3NS(=O)(=O)[O-])C(OC(=O)CCC)C2OS(=O)(=O)[O-])C(OC(=O)CCC)C1NS(=O)(=O)[O-].[Na+].[Na+].[Na+].[Na+].[Na+].[Na+].[Na+].[Na+] (centres undefined)
5

Return reported APTT; argument: CCCCCCCCOC(=O)/C=C(\CO)OC1OC(COS(=O)(=O)[O-])C(OC2OC(C(=O)OCCCCCCCC)C(OC3OC(COS(=O)(=O)[O-])C(OC4OC(C(=O)OCCCCCCCC)C(OC5OC(COS(=O)(=O)[O-])C(O)C(O)C5NS(=O)(=O)[O-])C(O)C4OS(=O)(=O)[O-])C(O)C3NS(=O)(=O)[O-])C(O)C2OS(=O)(=O)[O-])C(O)C1NS(=O)(=O)[O-].[Na+].[Na+].[Na+].[Na+].[Na+].[Na+].[Na+].[Na+] (stereo in doubt; 7g)
6

Return reported APTT; argument: COc1ccc(COC(=O)/C=C(\CO)OC2OC(COS(=O)(=O)[O-])C(OC3OC(C(=O)OCc4ccc(OC)cc4)C(OC4OC(COS(=O)(=O)[O-])C(OC5OC(C(=O)OCc6ccc(OC)cc6)C(OC6OC(COS(=O)(=O)[O-])C(O)C(O)C6NS(=O)(=O)[O-])C(O)C5OS(=O)(=O)[O-])C(O)C4NS(=O)(=O)[O-])C(O)C3OS(=O)(=O)[O-])C(O)C2NS(=O)(=O)[O-])cc1.[Na+].[Na+].[Na+].[Na+].[Na+].[Na+].[Na+].[Na+] (centres undefined)
4

Return reported APTT; argument: CCCC(=O)OC/C(=C\C(=O)[O-])OC1OC(COS(=O)(=O)[O-])C(OC2OC(C(=O)[O-])C(OC3OC(COS(=O)(=O)[O-])C(OC4OC(C(=O)[O-])C(OC5OC(COS(=O)(=O)[O-])C(O)C(OC(=O)CCC)C5NC(C)=O)C(OC(=O)CCC)C4OS(=O)(=O)[O-])C(OC(=O)CCC)C3NC(C)=O)C(OC(=O)CCC)C2OS(=O)(=O)[O-])C(OC(=O)CCC)C1NC(C)=O.[Na+].[Na+].[Na+].[Na+].[Na+].[Na+].[Na+].[Na+] (centres undefined)
6

Dear reader, for each entry below, please note its APTT.
1. CCCCCCCCOC(=O)/C=C(\CO)OC1OC(COS(=O)(=O)[O-])C(OC2OC(C(=O)OCCCCCCCC)C(OC3OC(COS(=O)(=O)[O-])C(OC4OC(C(=O)OCCCCCCCC)C(OC5OC(COS(=O)(=O)[O-])C(O)C(O)C5NS(=O)(=O)[O-])C(O)C4OS(=O)(=O)[O-])C(O)C3NS(=O)(=O)[O-])C(O)C2OS(=O)(=O)[O-])C(O)C1NS(=O)(=O)[O-].[Na+].[Na+].[Na+].[Na+].[Na+].[Na+].[Na+].[Na+] (stereo in doubt; 7f)
2. COC1C(NC(C)=O)C(OC2C(C(=O)[O-])OC(OC3C(NC(C)=O)C(OC4C(C(=O)[O-])OC(C)C(OC(=O)CCC(=O)[O-])C4O)OC(COC(=O)CCC(=O)[O-])C3OS(=O)(=O)[O-])C(OC(=O)CCC(=O)[O-])C2OC(=O)CCC(=O)[O-])OC(COC(=O)CCC(=O)[O-])C1OS(=O)(=O)[O-].[Na+].[Na+].[Na+].[Na+].[Na+].[Na+].[Na+].[Na+].[Na+] (centres undefined)
3. C=CCOC(=O)/C=C(\CO)OC1OC(COS(=O)(=O)[O-])C(OC2OC(C(=O)OCC=C)C(OC3OC(COS(=O)(=O)[O-])C(OC4OC(C(=O)OCC=C)C(OC5OC(COS(=O)(=O)[O-])C(O)C(O)C5NS(=O)(=O)[O-])C(O)C4OS(=O)(=O)[O-])C(O)C3NS(=O)(=O)[O-])C(O)C2OS(=O)(=O)[O-])C(O)C1NS(=O)(=O)[O-].[Na+].[Na+].[Na+].[Na+].[Na+].[Na+].[Na+].[Na+] (centres undefined)
4. C/C=C\COC(=O)/C=C(\CO)OC1OC(COS(=O)(=O)[O-])C(OC2OC(C(=O)OC/C=C/C)C(OC3OC(COS(=O)(=O)[O-])C(OC4OC(C(=O)OC/C=C/C)C(OC5OC(COS(=O)(=O)[O-])C(O)C(O)C5NS(=O)(=O)[O-])C(O)C4OS(=O)(=O)[O-])C(O)C3NS(=O)(=O)[O-])C(O)C2OS(=O)(=O)[O-])C(O)C1NS(=O)(=O)[O-].[Na+].[Na+].[Na+].[Na+].[Na+].[Na+].[Na+].[Na+] (centres undefined)

[3, 9, 2, 3]
